Listed here are molecules together with their documented TGI.
- Test system: RXF-631 renal
- ASSAY COMMENT: NCI tumour cell line growth inhibition, 48 h
READOUT: TGI

>>> recorded_value("CCC[CH2][Sn]([CH2]CCC)([O]C(=O)C1CCC(=O)N1)[O]C(=O)C1CCC(=O)N1 (configuration not stated)")
"0.297 µM"
>>> recorded_value("COC(=O)c1ccc(Cc2ccc(C(=O)OC)o2)o1")
"> 378 µM"
>>> recorded_value("Cn1c2cc(O)cc(O)c2c(=O)c2c([N+](=O)[O-])cccc21")
"> 100 µM"
>>> recorded_value("O=C([O-])c1ccc(C(=O)[O-])cc1.O=C([O-])c1ccc(C(=O)[O-])cc1.[Mo+2].[Mo+2]")
"> 100 µM"
>>> recorded_value("COCCOCC(=O)N(CCn1ccc(NC(c2ccccc2)(c2ccccc2)c2ccccc2)nc1=O)CCn1cnc2nc(N)[nH]c(=O)c21")
"> 100 µM"
>>> recorded_value("O=c1cc(-c2ccccc2)oc2cc(OCCSCCCCCCCCCCSCCOc3ccc4c(=O)cc(-c5ccccc5)oc4c3)ccc12")
"> 100 µM"
>>> recorded_value("O=C1C2c3[nH]c4ccccc4c3[C@@H]3CCCCC3C2C(=O)N1c1ccccc1 (some centres not stated)")
"34.2 µM"
